Please go through the items and note down their pEC50.
# TARGET DESC: SARM1 protein in iSARM1 (HEK293) cells (Homo sapiens)
# Construct: The full-length SARM1 was synthesized into the pUC57 plasmid by WZ Biosciences Inc., and PCR was performed using pUC57-SARM1 as a DNA template
# Sequence (Q6SZW1 28-724): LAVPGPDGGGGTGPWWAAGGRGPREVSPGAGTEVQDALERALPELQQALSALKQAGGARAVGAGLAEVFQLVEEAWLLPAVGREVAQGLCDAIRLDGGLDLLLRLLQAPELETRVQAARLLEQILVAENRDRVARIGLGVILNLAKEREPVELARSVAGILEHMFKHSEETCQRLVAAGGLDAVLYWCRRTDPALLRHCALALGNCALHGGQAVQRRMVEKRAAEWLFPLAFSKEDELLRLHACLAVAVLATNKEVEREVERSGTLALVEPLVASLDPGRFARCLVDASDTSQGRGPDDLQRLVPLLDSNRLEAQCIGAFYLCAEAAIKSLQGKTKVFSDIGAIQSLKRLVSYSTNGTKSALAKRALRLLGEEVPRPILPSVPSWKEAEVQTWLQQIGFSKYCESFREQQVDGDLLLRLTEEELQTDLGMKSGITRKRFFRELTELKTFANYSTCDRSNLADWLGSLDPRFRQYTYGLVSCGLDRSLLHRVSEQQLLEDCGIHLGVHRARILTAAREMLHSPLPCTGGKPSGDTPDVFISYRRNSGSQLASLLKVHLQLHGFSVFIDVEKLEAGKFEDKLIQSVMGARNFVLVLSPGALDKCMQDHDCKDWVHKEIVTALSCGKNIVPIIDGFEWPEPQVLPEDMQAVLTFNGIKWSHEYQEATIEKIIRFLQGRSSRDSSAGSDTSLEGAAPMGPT
# PROCEDURE TEXT: Inhibitory activity in inducible SARM1 overexpressing cell line, intracellular cADPR level
# CONDITION PARAMETERS: activator CZ-48 100 μM, cADPR content
pEC50: −log10 of the molar value.

Request: Report measured pEC50 on SARM1 protein in iSARM1 (HEK293) cells (Homo sapiens); entry: "C=CCN(C(=O)OC(C)(C)C)c1ccc2ncc(-c3cccc(NC(=O)C4CCOCC4)c3)n2c1"
Result: > 6.00

Request: Report measured pEC50 on SARM1 protein in iSARM1 (HEK293) cells (Homo sapiens); entry: "Brc1cnc2ccc(N3CCOCC3)cn12"
Result: 5.00 to 6.00

Request: Report measured pEC50 on SARM1 protein in iSARM1 (HEK293) cells (Homo sapiens); entry: "CNC(=O)c1cccc(-c2cnc3ccc(N(C)C(=O)OC(C)(C)C)cn23)c1"
Result: 5.00 to 6.00

Request: Report measured pEC50 on SARM1 protein in iSARM1 (HEK293) cells (Homo sapiens); entry: CNc1ccc2ncc(-c3cccc(NC(=O)C4CCCO4)c3)n2c1 (stereo not drawn)
Result: 5.00 to 6.00

Request: Report measured pEC50 on SARM1 protein in iSARM1 (HEK293) cells (Homo sapiens); entry: "C=CCN(C(=O)OC(C)(C)C)c1ccc2ncc(-c3cccc(N)c3)n2c1"
Result: > 6.00

Request: Report measured pEC50 on SARM1 protein in iSARM1 (HEK293) cells (Homo sapiens); entry: "CN(C(=O)OC(C)(C)C)c1ccc2ncc(-c3cccc(NC(=O)COCCOCCOCC(N)=O)c3)n2c1"
Result: 5.00 to 6.00

Request: Report measured pEC50 on SARM1 protein in iSARM1 (HEK293) cells (Homo sapiens); entry: "COc1cccc(-c2cnc3ccc(N(C)C(=O)OC(C)(C)C)cn23)c1"
Result: 5.00 to 6.00

Request: Report measured pEC50 on SARM1 protein in iSARM1 (HEK293) cells (Homo sapiens); entry: "COc1ccc(-c2cnc3ccc(N(C)C(=O)OC(C)(C)C)cn23)cc1"
Result: 5.00 to 6.00

Request: Report measured pEC50 on SARM1 protein in iSARM1 (HEK293) cells (Homo sapiens); entry: "CNc1ccc2ncc(-c3cccc(NC(=O)COCCOCc4ccccc4)c3)n2c1"
Result: > 6.00

Request: Report measured pEC50 on SARM1 protein in iSARM1 (HEK293) cells (Homo sapiens); entry: "CNc1ccc2ncc(C(=O)Nc3ccccc3)n2c1"
Result: 5.00 to 6.00

Request: Report measured pEC50 on SARM1 protein in iSARM1 (HEK293) cells (Homo sapiens); entry: "CNc1ccc2ncc(-c3cccc(NC(=O)C4CCOCC4)n3)n2c1"
Result: > 6.00

Request: Report measured pEC50 on SARM1 protein in iSARM1 (HEK293) cells (Homo sapiens); entry: "CNc1ccc2ncc(-c3ccccc3)n2c1"
Result: 5.00 to 6.00

Request: Report measured pEC50 on SARM1 protein in iSARM1 (HEK293) cells (Homo sapiens); entry: "CNc1ccc2ncc(-c3cccc(CNC(=O)c4ccccc4)c3)n2c1"
Result: 5.00 to 6.00

Request: Report measured pEC50 on SARM1 protein in iSARM1 (HEK293) cells (Homo sapiens); entry: "CNc1ccc2ncc(-c3cccc(NC(=O)COCCOCCOCC(=O)Nc4cccc(-c5cnc6ccc(NC)cn56)c4)c3)n2c1"
Result: 5.00 to 6.00

Request: Report measured pEC50 on SARM1 protein in iSARM1 (HEK293) cells (Homo sapiens); entry: "CN(C(=O)C1CC1)c1ccc2ncc(-c3cccc(NC(=O)C4CCOCC4)c3)n2c1"
Result: 5.00 to 6.00

Request: Report measured pEC50 on SARM1 protein in iSARM1 (HEK293) cells (Homo sapiens); entry: "CNc1ccc2ncc(-c3cccc4[nH]ccc34)n2c1"
Result: 5.00 to 6.00

Request: Report measured pEC50 on SARM1 protein in iSARM1 (HEK293) cells (Homo sapiens); entry: "CN(C(=O)OC(C)(C)C)c1ccc2ncc(-c3cccc4[nH]ccc34)n2c1"
Result: 5.00 to 6.00

Request: Report measured pEC50 on SARM1 protein in iSARM1 (HEK293) cells (Homo sapiens); entry: "CNc1ccc2ncc(-c3cccs3)n2c1"
Result: 5.00 to 6.00
